Reported Minimum Inhibitory Concentrations, H. inflenza ATCC 49247 values are given for each entry in this list.
Tested on: H. inflenza ATCC 49247
Measurement notes: MIC, agar incorporation method (NCCLS agar dilution method)
Assay type: cell-based, Haemophilus influenzae
Reported conditions: agar dilution, 18-24 hours, 35±2° C., 5% CO2

>  <Compound>
C#CCN(C)C1CC(C)OC(OC2C(C)C(OC(=O)Cc3ccc(F)cc3)C(C)C(=O)OC(CC)C(C)(O)C(O)C(C)C(=O)C(C)CC2(C)OC)C1O (stereo not shown) [Compound No. 18]

>  <Measured>
>16 µg/mL

$$$$
>  <Compound>
CCC1OC(=O)C(C)C(OC(=O)Cc2ccc(F)cc2)C(C)C(OC2OC(C)CC(N(C)Cc3cccc(O)c3)C2O)C(C)(OC)CC(C)C(=O)C(C)C(O)C1(C)O (stereo not shown) [Compound No. 17]

>  <Measured>
>16 µg/mL

$$$$
>  <Compound>
CCC1OC(=O)C(C)C(OC(=O)Cc2ccccc2F)C(C)C(OC2OC(C)CC(N(C)Cc3ccc(F)cc3)C2O)C(C)(OC)CC(C)C(=O)C(C)C(O)C1(C)O (stereo not shown) [Compound No. 5]

>  <Measured>
>128 µg/mL

$$$$

Consider now this further compound.
Ask: What measured Minimum Inhibitory Concentrations, H. inflenza ATCC 49247 goes with CC[C@H]1OC(=O)[C@H](C)[C@@H](O[C@H]2C[C@@](C)(OC)[C@@H](O)[C@H](C)O2)[C@H](C)[C@@H](O[C@@H]2O[C@H](C)C[C@H](N(C)C)[C@H]2O)[C@](C)(O)C[C@@H](C)C(=O)[C@H](C)[C@@H](O)[C@]1(C)O [E, erythromycin A, reference compound] ?
Result: >16 µg/mL
